tested on: RXF 393 renal; assay: NCI tumour cell line growth inhibition, 48 h
PROPERTY_LABEL: GI50

Input: Let me know recorded GI50 for CO[C@H]1CC(O[C@@H]2/C(C)=C/C[C@@H]3C[C@@H](C[C@]4(CC[C@H](C)[C@@H](C5CCCCC5)O4)O3)OC(=O)[C@@H]3C=C(C)/C(=N/O)[C@H]4OC/C(=C\C=C\[C@@H]2C)[C@]43O)O[C@@H](C)C1O (some centres undefined) , thanks.
Output: 728 nM

Input: Let me know recorded GI50 for `C/C(=C(\c1ccc(OCCN2CCCCCC2)cc1)c1ccc(OC(=O)c2ccccc2)cc1)c1ccc(Cl)cc1` , thanks.
Output: 3710 nM

Input: Let me know recorded GI50 for `Cc1cc2c(-c3nc4ccccn4c3N)c(O)c(O)cc2c(O)c1-c1c(C)cc2c(-c3nc4ccccn4c3N)c(O)c(O)cc2c1O` , thanks.
Output: 682 nM

Input: Let me know recorded GI50 for `COc1cc2c(c(OC)c1OC)-c1ccc(SC)c(=O)cc1[C@@H](O)CC2` , thanks.
Output: > 100000 nM

* * *

Please respond with reported TGI for every item in the list.
system: LXFL 529 NSCLC; assay: NCI tumour cell line growth inhibition, 48 h

Input: Let me know recorded TGI for `O=c1c(Cl)c(Cl)cnn1CCCl` , thanks.
Output: 3.1 µM

Input: Let me know recorded TGI for Cc1cccc(C)c1N1C(=O)C(=O)C(c2nc3ccccc3s2)/C(=N\N)C1=O (stereo unspecified) , thanks.
Output: > 100 µM

Input: Let me know recorded TGI for C/C=C1\CN2CCc3c([nH]c4ccccc34)C2CC1CCO (stereo unspecified) , thanks.
Output: > 100 µM

Input: Let me know recorded TGI for `COc1cc(/C=N/N=C(\N)NO)c(Cl)cc1O` , thanks.
Output: > 100 µM

Input: Let me know recorded TGI for CCOC(=O)CC(NC(=O)c1[nH]cnc1/N=N/N(C)C)C(=O)OCC (stereo unspecified) , thanks.
Output: > 100 µM

Input: Let me know recorded TGI for `COc1nc(N)c(NC(C)=O)c(=O)n1C` , thanks.
Output: > 100 µM

* * *

tested on: BT-549 breast; assay: NCI tumour cell line growth inhibition, 48 h; in the data active means GI50 below about 0.43 µM; inactive means the rest
Valid outcomes are listed here; reply with one: yes (1) (active), no (0) (inactive)

Input: Tell me the recorded outcome of this test for `c1ccc(CNCCN(CCNCc2ccccn2)Cc2ccc3ccccc3c2)nc1` .
Output: no (0)

Input: Tell me the recorded outcome of this test for `N#Cc1cnc(Nc2cc(NC[C@H]3CNCCO3)c(C(F)(F)F)cn2)cn1` .
Output: no (0)

Input: Tell me the recorded outcome of this test for `O=[N+]([O-])c1cc([N+](=O)[O-])c(Nn2c3ccccc3c3ccccc32)c([N+](=O)[O-])c1` .
Output: yes (1)

Input: Tell me the recorded outcome of this test for `COC(=O)c1oc2c(C(=O)/C=C/c3ccc(OC)cc3)c(OCCN(C)C)ccc2c1C` .
Output: no (0)

Input: Tell me the recorded outcome of this test for `COc1cc2c(c(OC)c1OC)-c1ccc(SC)c(=O)cc1[C@@H](O)CC2` .
Output: no (0)

Input: Tell me the recorded outcome of this test for `O=C1c2ccccc2-c2c1c1ccccc1c(=O)n2CCCNCCn1c2c(c3ccccc3c1=O)C(=O)c1ccccc1-2` .
Output: no (0)

* * *

tested on: RPMI-8226 leukemia; experiment: NCI tumour cell line growth inhibition, 48 h
Please respond with reported TGI for every item in the list.

Input: Let me know recorded TGI for `Cc1ccc(C)n2c1nc1ccccc12` , thanks.
Output: > 100 µM

Input: Let me know recorded TGI for `CCOC(=O)/C=C(/C(=O)OCC)n1ccc(=O)n(Cc2cnnn2COCCOC(C)=O)c1=O` , thanks.
Output: 51.2 µM

Input: Let me know recorded TGI for `Cc1cc(=O)n(-c2cc3cccccc-3n2)[nH]1` , thanks.
Output: 67.2 µM

Input: Let me know recorded TGI for CCCCCCCCCCCCOC1C(CNC(=O)C2OC3OC(C)(C)OC3C2NC(=O)CN2CCN(c3ccc(OC)cc3)CC2)OC2OC(C)(C)OC21 (stereo not given) , thanks.
Output: 4.73 µM

Input: Let me know recorded TGI for `O=C1C=CC(=O)c2c(O)c3c(c(O)c21)C[C@H](O)[C@H](O)[C@@H]3O` , thanks.
Output: 4.85 µM

* * *

tested on: SW-620 colon; experiment: NCI tumour cell line growth inhibition, 48 h
PROPERTY_LABEL: TGI (µM)
Number in µM, nothing else.

Input: Let me know recorded TGI for CCN(CC)CCN(C)c1ccc(CO)c2c1C(=O)c1ccccc1S2=O (stereo not given) , thanks.
Output: 3.63

Input: Let me know recorded TGI for `CCNC(=O)OCc1c(COC(=O)NCC)c(-c2ccc(Cl)c(Cl)c2)n2c1CCC2` , thanks.
Output: 68.8

Input: Let me know recorded TGI for CCN(CC)CCCC(C)N/C(=C1\C(=O)NC(=O)\C1=C(/NC(C)CCCN(CC)CC)c1cccc(OC)c1)c1cccc(OC)c1 (stereo not given) , thanks.
Output: 3.65

Input: Let me know recorded TGI for `Cc1cc(-c2cc(O)ccc2Cl)cc2nnc(Nc3ccc(OCCN4CCCC4)cc3)nc12` , thanks.
Output: 0.399

* * *

tested on: OVCAR-4 ovarian; assay: NCI tumour cell line growth inhibition, 48 h
Please respond with reported GI50 for every item in the list.

Input: Let me know recorded GI50 for `CCN(Cc1cccc(Cl)c1)c1ccc(CO)c(Cl)c1` , thanks.
Output: 0.505 µM

Input: Let me know recorded GI50 for `O=C1c2ccccc2-c2c1c1ccccc1c(=O)n2CCCNCCn1c2c(c3ccccc3c1=O)C(=O)c1ccccc1-2` , thanks.
Output: 11.5 µM

Input: Let me know recorded GI50 for `Cc1cc(-c2cc(O)ccc2Cl)cc2nnc(Nc3ccc(OCCN4CCCC4)cc3)nc12` , thanks.
Output: 0.615 µM

Input: Let me know recorded GI50 for `Cn1c2c(c3c(Cl)nncc31)Cc1ccccc1-2` , thanks.
Output: 23.9 µM

Input: Let me know recorded GI50 for `Cc1cc(Nc2cc(N3CCN(C)CC3)nc(/C=C/c3ccccc3)n2)n[nH]1` , thanks.
Output: 0.644 µM

Input: Let me know recorded GI50 for CSc1nc2c(c(=O)n1C)CN(C1CCCCC1)C(=O)C(c1ccccc1)N2 (stereo unspecified) , thanks.
Output: 35.2 µM

* * *

system: SK-MEL-5 melanoma; assay: NCI tumour cell line growth inhibition, 48 h
PROPERTY_LABEL: TGI (µM)
Number in µM, nothing else.

Input: Let me know recorded TGI for [B-][P+](CC[P+]1([B-])[C@@H](C)[C@@H](O)[C@H](O)[C@@H]1C)(c1ccccc1)c1ccccc1OC (some centres undefined) , thanks.
Output: 29.3

Input: Let me know recorded TGI for `COc1c(C(=O)NCCN(CCNC(=O)c2cccc(-c3cccc(C(=O)N(C)C)c3OC)c2OC)CCNC(=O)c2cccc(-c3cccc(C(=O)N(C)C)c3OC)c2OC)cccc1-c1cccc(C(=O)N(C)C)c1OC` , thanks.
Output: 68.7

Input: Let me know recorded TGI for `CC(C)C(OC(=O)c1ccc(NCC2=CC(=O)C=CC2=O)cc1)C(C)C` , thanks.
Output: 24.5

Input: Let me know recorded TGI for CCN(CC)CCCC(C)Nc1c2cc(OC)cc(C)c2nc2c(C)c(Cl)ccc12 (centres undefined) , thanks.
Output: 3.28

Input: Let me know recorded TGI for `COC(=O)[C@@H]1Cc2c([nH]c3ccccc23)[C@H](c2ccccc2)N1` , thanks.
Output: 63.4

* * *

test system: K-562 leukemia; assay: NCI tumour cell line growth inhibition, 48 h
PROPERTY_LABEL: GI50

Input: Let me know recorded GI50 for `COC(=O)c1cc2c3ccccc3n3c2c(n1)-c1[nH]c2ccccc2c(=O)c1C3` , thanks.
Output: > 100 µM

Input: Let me know recorded GI50 for `CC(=O)[CH-]C(=O)c1ccccc1.CC(=O)[CH-]C(=O)c1ccccc1.O=S(=O)([O-])c1cc([O-])c2c([O-])cc(S(=O)(=O)[O-])cc2c1.[Na+].[Zr+4]` , thanks.
Output: > 100 µM

Input: Let me know recorded GI50 for `CCOc1ccn(-c2ccc(F)cc2)c(=O)c1C(=O)Nc1ccc(Oc2ccnc(N)c2Cl)c(F)c1` , thanks.
Output: 4.42 µM

Input: Let me know recorded GI50 for `Cc1cc(Nc2nc(N[C@@H](C)c3ncc(F)cn3)ncc2Cl)n[nH]1` , thanks.
Output: 32.2 µM

Input: Let me know recorded GI50 for `Cn1c2c(c3c(Cl)nncc31)Cc1ccccc1-2` , thanks.
Output: 25.9 µM

Input: Let me know recorded GI50 for `C/C(=C(\c1ccc(OCCN2CCCCCC2)cc1)c1ccc(OC(=O)c2ccccc2)cc1)c1ccc(Cl)cc1` , thanks.
Output: 1.31 µM

Input: Let me know recorded GI50 for `Nc1nc(/C=C\c2ccccc2)nc(N2CCN(c3ccccc3)CC2)n1` , thanks.
Output: 20.5 µM

Input: Let me know recorded GI50 for `N#Cc1cnc(Nc2cc(NC[C@H]3CNCCO3)c(C(F)(F)F)cn2)cn1` , thanks.
Output: 3.19 µM

Input: Let me know recorded GI50 for Cn1cc(-c2cnn3c(N)c(Br)c(C4CCCNC4)nc23)cn1 (stereo not given) , thanks.
Output: 3.85 µM

Input: Let me know recorded GI50 for O=C(O)C1[O][Sb][O]C(C(=O)O)C1O (stereo not given) , thanks.
Output: > 100 µM

Data origin, for the record: PubChem BioAssay (NCI)
